Measurement notes: AUC (0 to infinity) in C57BL/6 mouse at 20 mg/kg, ip by LC-MS/MS analysis
Assay type: ADME, organism-based
Test context: in vivo
Assay endpoint: AUC(0-inf)
Note to self: number, then unit, no commentary.

Given the compound Cc1ccc2c(n1)N(Cc1ccc(C(=O)NO)cc1F)CCC2 , what is its reported AUC(0-inf)?
522 ng·h/mL

###

Measurement notes: Cmax in C57BL/6 mouse at 20 mg/kg, ip by LC-MS/MS analysis
Assay type: ADME, organism-based
Test context: in vivo
Assay endpoint: Cmax (ng/mL)
Numbers only; they are read as ng/mL.

Given the molecule Cc1ccc2c(n1)N(Cc1ccc(C(=O)NO)cc1F)CCC2 , what is its reported Cmax?
1510
